- measurement-description: Cytotoxicity, ATPlite Luminescence Assay
- Format: cell-based, human
- measurement-parameters: human, HepG2 or HepG2.117 cells, 3-days incubation unless marked with *, ATPlite viability
measure-name: CC50 (µM)
// return numeric value only (unit: µM, not printed)

compound	CC50 (µM)
CNC(=O)[C@@H]1CN([C@@H](C)c2ccc(C(F)(F)F)nc2)C(=O)c2c3c(nn21)C[C@@H](C)N(C(=O)c1ccc(Cl)c(Cl)c1)C3 [Compound 13B]	46.8

Next up:
Form field: reported CC50 of CNC(=O)[C@@H]1CN([C@H](C)c2ccc(OC(F)F)cc2)C(=O)c2c3c(nn21)C[C@@H](C)N(C(=O)c1ccc(Cl)c(Cl)c1)C3 [Compound 16A] 40.4

###

Some compounds, each annotated with its measured CC50.
- System: HepG2 or HepG2.117 cells
- measurement-description: Cytotoxicity, ATPlite Luminescence Assay
- Type: cell-based, human
- measurement-parameters: 3-days incubation unless marked with *, ATPlite viability
// return numeric value only (unit: µM, not printed)

compound	experimental-target	unit-annotation	CC50
CNC(=O)[C@@H]1CN(C(C)c2ccc(OC(F)F)nc2)C(=O)c2c3c(nn21)C[C@@H](C)N(C(=O)c1ccc(Cl)c(Cl)c1)C3 (single isomer, unassigned) [Compound 11B]	HepG2 or HepG2.117 cells	µM	23.4

Next up:
Form field: reported CC50 of CNC(=O)[C@@H]1CN(C(C)c2ccc(C3CC3)nc2)C(=O)c2c3c(nn21)C[C@@H](C)N(C(=O)c1ccc(Cl)c(Cl)c1)C3 (single isomer, unassigned) [Compound 32B] 48.7

###

- measurement-description: Human liver microsome stability
- Type: in vitro ADME
- measurement-parameters: human, pooled human liver microsomes, pH 7.4, pooled human liver microsomes 0.5 mg/mL, 1 μM compound, NADPH 1 mM, pH 7.4, 37° C., 0-60 min; read-out: HLM Metabolism t1/2
measure-name: half-life at 1 μM

molecule	half-life at 1 μM
C[C@@H]1Cc2nn3c(c2CN1C(=O)c1ccc(Cl)c(Cl)c1)C(=O)N([C@@H](C)c1ccc(C#N)cc1)CC3 [Ref 5, reference compound]	0.132 h
CNC(=O)[C@@H]1CN(C(C)c2ccc(C)nn2)C(=O)c2c3c(nn21)C[C@@H](C)N(C(=O)c1ccc(Cl)c(Cl)c1)C3 (single isomer, unassigned) [Compound 1B]	> 3 h

Next up:
Form field: reported half-life at 1 μM of CNC(=O)[C@@H]1CN(C(C)c2ccc(-n3nnc(C)n3)cc2)C(=O)c2c3c(nn21)C[C@@H](C)N(C(=O)c1ccc(Cl)c(Cl)c1)C3 (single isomer, unassigned) [Compound 30A] > 3 h

###

- measurement-description: Human liver microsome stability
- Type: in vitro ADME
- measurement-parameters: pooled human liver microsomes 0.5 mg/mL, 1 μM compound, NADPH 1 mM, pH 7.4, 37° C., 0-60 min
Some compounds, each annotated with its measured HLM Metabolism t1/2.

// known answers, use as guide
compound	value-observed
CNC(=O)[C@@H]1CN(C(C)c2ccc(-n3ncnc3C)cn2)C(=O)c2c3c(nn21)C[C@@H](C)N(C(=O)c1ccc(Cl)c(Cl)c1)C3 (single isomer, unassigned) [Compound 41B]	>3 h
CNC(=O)[C@@H]1CN(C(C)c2ccc(-n3cncn3)cc2)C(=O)c2c3c(nn21)C[C@@H](C)N(C(=O)c1ccc(Cl)c(Cl)c1)C3 (single isomer, unassigned)	>3 h
CNC(=O)[C@@H]1CN(C(C)c2ccc(C(C)(C)O)cn2)C(=O)c2c3c(nn21)C[C@@H](C)N(C(=O)c1ccc(Cl)c(Cl)c1)C3 (single isomer, unassigned) [Compound 39B]	>3 h
CC(c1ccc(OC(F)F)nc1)N1C[C@@H](C(N)=O)n2nc3c(c2C1=O)CN(C(=O)c1ccc(Cl)c(Cl)c1)[C@H](C)C3 (single isomer, unassigned) [Compound 12B]	>3 h
CNC(=O)[C@@H]1CN(C(C)c2ccc(OC)nc2)C(=O)c2c3c(nn21)C[C@@H](C)N(C(=O)c1ccc(Cl)c(Cl)c1)C3 (single isomer, unassigned) [Compound 31B]	>3 h

Form field: reported HLM Metabolism t1/2 of CNC(=O)[C@@H]1CN(C(C)c2ccc(C3CC3)nc2)C(=O)c2c3c(nn21)C[C@@H](C)N(C(=O)c1ccc(Cl)c(Cl)c1)C3 (single isomer, unassigned) [Compound 32B] >3 h

Form field: reported HLM Metabolism t1/2 of CNC(=O)[C@@H]1CN(C(C)c2ccc(C(F)F)nc2)C(=O)c2c3c(nn21)C[C@@H](C)N(C(=O)c1ccc(Cl)c(Cl)c1)C3 (single isomer, unassigned) [Compound 36B] >3 h

Form field: reported HLM Metabolism t1/2 of CNC(=O)[C@@H]1CN(C(C)c2cccc(Cl)n2)C(=O)c2c3c(nn21)C[C@@H](C)N(C(=O)c1ccc(Cl)c(Cl)c1)C3 (single isomer, unassigned) [Compound 38B] 2.4 h

Form field: reported HLM Metabolism t1/2 of CNC(=O)[C@@H]1CN(C(C)c2ccc(-c3c(C)noc3C)nc2)C(=O)c2c3c(nn21)C[C@@H](C)N(C(=O)c1ccc(Cl)c(Cl)c1)C3 (single isomer, unassigned) [Compound 35B] 2.17 h

Form field: reported HLM Metabolism t1/2 of CNC(=O)[C@@H]1CN(C(C)c2ccc(NCC(F)(F)F)nc2)C(=O)c2c3c(nn21)C[C@@H](C)N(C(=O)c1ccc(Cl)c(Cl)c1)C3 (single isomer, unassigned) [Compound 33B] >3 h

Form field: reported HLM Metabolism t1/2 of CNC(=O)[C@@H]1CN(C(C)c2ccc(-n3nnc(C)n3)cc2)C(=O)c2c3c(nn21)C[C@@H](C)N(C(=O)c1ccc(Cl)c(Cl)c1)C3 (single isomer, unassigned) [Compound 30B] 1.52 h

Form field: reported HLM Metabolism t1/2 of CNC(=O)[C@@H]1CN(C(C)c2ccc(-n3cncn3)cn2)C(=O)c2c3c(nn21)C[C@@H](C)N(C(=O)c1ccc(Cl)c(Cl)c1)C3 (single isomer, unassigned) [Compound 40B] >3 h

The measured values listed here are drawn from patent US20240279227A1.
